target: PARD3B_2, Q8TEW8; assay: holdup assay; set-up: key: below the threshold = too weak to quantify, mostly under pKd 3.1 to 4; details: plain residues with an end cap or a label only (N-terminal biotin on a linker: ttds)
Sequence (Q8TEW8 376-471): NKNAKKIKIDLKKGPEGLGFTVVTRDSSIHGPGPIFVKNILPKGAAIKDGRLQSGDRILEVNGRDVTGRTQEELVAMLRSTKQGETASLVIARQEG
RECORDED METRIC: pKd

[
  {
    "BINDER": "KLVIKTETTV [RASSF6, Q6ZTQ3]",
    "ASSAY RESULT": "below the threshold"
  },
  {
    "BINDER": "SGGKRKETLV [NET1, Q7Z628]",
    "ASSAY RESULT": "below the threshold"
  },
  {
    "BINDER": "SSIDLWETAL [SLC15A5, A6NIM6]",
    "ASSAY RESULT": "below the threshold"
  },
  {
    "BINDER": "PPRQRSETQV [HPV82-E6, Q9IR59]",
    "ASSAY RESULT": "below the threshold"
  }
]
